# assayed system: T1, interleukin 18 binding protein (IL-18BP) (UniProt O95998 31-194); also: unit not given here
# T1 sequence (looked up): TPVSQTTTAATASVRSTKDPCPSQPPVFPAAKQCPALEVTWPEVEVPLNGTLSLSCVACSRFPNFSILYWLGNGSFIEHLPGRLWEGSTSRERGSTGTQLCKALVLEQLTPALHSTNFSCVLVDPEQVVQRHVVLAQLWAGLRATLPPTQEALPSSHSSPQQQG
# assay: cell-based or functional assay
value type: HEK-Blue activity, +100 nM BP, DF-100,000

{"binder": "IL-18 variant K53H, S55M, T63S (ligand) YFGKLESKLSVIRNLNDQVLFIDQGNRPLFEDMTDSDMRDNAPRTIFIISMYHDMQPRGMAVSISVKSEKISTLSSENKIISFKEMNPPDNIKDTKSDIIFFQRSVPGHDNKMQFESSSYEGYFLASEKERDLFKLILKKEDELGDRSIMFTVQNED", "result number": 0.12}
{"binder": "IL-18 variant K53H, S55H (ligand) YFGKLESKLSVIRNLNDQVLFIDQGNRPLFEDMTDSDMRDNAPRTIFIISMYHDHQPRGMAVTISVKSEKISTLSSENKIISFKEMNPPDNIKDTKSDIIFFQRSVPGHDNKMQFESSSYEGYFLASEKERDLFKLILKKEDELGDRSIMFTVQNED", "result number": 0.1}
{"binder": "IL-18 variant K53D, S55T, H109I (ligand) YFGKLESKLSVIRNLNDQVLFIDQGNRPLFEDMTDSDMRDNAPRTIFIISMYDDTQPRGMAVTISVKSEKISTLSSENKIISFKEMNPPDNIKDTKSDIIFFQRSVPGIDNKMQFESSSYEGYFLASEKERDLFKLILKKEDELGDRSIMFTVQNED", "result number": 0.09}

Ref: patent US20240182536A1
